- target_system: AMPK 221 (Homo sapiens, UniProt O43741+P54646)
- Construct: open reading frames encoding the full-length α2, β2 and δ1 subunits of human AMPK; made in house; host or cells: E. coli BL21-CodonPlus (DE3)-RIPL, pET-14b
- Sequence (P54646 whole entry): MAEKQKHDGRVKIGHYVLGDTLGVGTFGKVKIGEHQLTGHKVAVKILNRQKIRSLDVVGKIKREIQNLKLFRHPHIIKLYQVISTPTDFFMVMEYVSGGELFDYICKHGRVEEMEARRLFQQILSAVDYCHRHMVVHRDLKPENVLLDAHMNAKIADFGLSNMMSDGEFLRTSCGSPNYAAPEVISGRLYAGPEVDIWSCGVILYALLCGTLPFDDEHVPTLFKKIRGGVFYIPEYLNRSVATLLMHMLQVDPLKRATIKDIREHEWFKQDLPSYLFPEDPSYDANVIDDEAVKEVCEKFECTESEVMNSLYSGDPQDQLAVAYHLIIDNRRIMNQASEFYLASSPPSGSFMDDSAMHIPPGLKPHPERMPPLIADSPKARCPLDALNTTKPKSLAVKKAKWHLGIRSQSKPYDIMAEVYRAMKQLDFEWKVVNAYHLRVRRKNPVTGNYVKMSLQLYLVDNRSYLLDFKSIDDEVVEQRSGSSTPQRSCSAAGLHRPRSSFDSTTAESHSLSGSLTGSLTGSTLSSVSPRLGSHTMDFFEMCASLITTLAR
- Sequence (O43741 whole entry): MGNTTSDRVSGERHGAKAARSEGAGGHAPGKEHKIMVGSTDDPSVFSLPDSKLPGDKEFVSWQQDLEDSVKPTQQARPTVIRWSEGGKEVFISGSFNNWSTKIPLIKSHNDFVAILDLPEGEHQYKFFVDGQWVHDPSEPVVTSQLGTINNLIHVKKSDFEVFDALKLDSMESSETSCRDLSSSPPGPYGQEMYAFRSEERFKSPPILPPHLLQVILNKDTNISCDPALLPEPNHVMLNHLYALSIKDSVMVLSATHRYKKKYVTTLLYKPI
- Sequence (P54619 whole entry partner): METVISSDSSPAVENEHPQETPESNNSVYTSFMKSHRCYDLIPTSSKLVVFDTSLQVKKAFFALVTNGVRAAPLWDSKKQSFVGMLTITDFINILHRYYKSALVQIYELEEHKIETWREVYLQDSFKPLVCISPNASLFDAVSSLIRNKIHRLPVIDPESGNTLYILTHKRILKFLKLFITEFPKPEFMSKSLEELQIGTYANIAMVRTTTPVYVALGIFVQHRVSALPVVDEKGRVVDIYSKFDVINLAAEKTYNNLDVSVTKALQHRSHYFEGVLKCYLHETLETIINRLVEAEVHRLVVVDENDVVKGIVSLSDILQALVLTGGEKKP
- assay_overview: Biochemical profiling of AMPK activators by AMPK221 (HTRF/TR-FRET assay, SAMS peptide, PP2A dephosphorylation protection)
- experimental_conditions: phosphorylated AMPK 221; maximal activation
- Procedure: The biochemical EC50 (half-maximal concentration required for full activation) of compounds for the activation of AMPK was evaluated by HTRF assay using LANCE Ultra ULight-Acetyl-CoA Carboxylase (SAMS) peptide (commercially available, Perkin Elmer catalog TRF0133-M). […]
assay_readout: Emax (%)

Solved entries (count: 2):
CS(=N)(=O)c1ccc(-c2ccc(-c3cc4c(CCC(=O)O)n[nH]c4cc3Cl)cc2)cc1 (stereo not shown) | 48
NC(c1ccc(-c2ccc(-c3cc4c(CCC(=O)O)n[nH]c4cc3Cl)cc2)c(O)c1)C(F)(F)F (stereo not shown) | 67

I: O=C(O)CCc1n[nH]c2cc(Cl)c(-c3ccc(-c4ccc5c(c4)CS(=O)(=O)C5)cc3)cc12
II: O=C(CCc1n[nH]c2cc(Cl)c(-c3ccc(-c4ccccc4O)cc3)cc12)OC1OC(C(=O)O)C(O)C(O)C1O (stereo not shown)
Quick one: lower Emax, I or II ? Please reply using the label of the selected record.
II
(II: 27%, I: 64%)

###

- target_system: AMPK 221 (Homo sapiens, UniProt O43741+P54646)
- Construct: open reading frames encoding the full-length α2, β2 and δ1 subunits of human AMPK
- assay_overview: Biochemical profiling of AMPK activators by AMPK221 (HTRF/TR-FRET assay, SAMS peptide, PP2A dephosphorylation protection)
- experimental_conditions: phosphorylated AMPK 221 (α2β2δ1); 11 point dilution, duplicate; 4-parameter fit
- Procedure: The biochemical EC50 (half-maximal concentration required for full activation) of compounds for the activation of AMPK was evaluated by HTRF assay using LANCE Ultra ULight-Acetyl-CoA Carboxylase (SAMS) peptide (commercially available, Perkin Elmer catalog TRF0133-M). […]
pEC50: −log10 of the molar value.
assay_readout: pEC50

1: O=C(O)CCc1n[nH]c2cc(Cl)c(-c3ccc(-c4c(Cl)ccc(F)c4O)cc3)cc12
2: O=C(O)CCc1n[nH]c2cc(Cl)c(-c3ccc(-c4ccccc4O)cc3)nc12
3: COc1c(Cl)ccc(-c2ccc(-c3cc4c(CCC(=O)O)n[nH]c4cc3Cl)cc2)c1O
With regard to pEC50, arrange the entries in ascending order, please. Use the labels to give the requested order.
2, 1, 3
(2: 5.67, 1: 6.02, 3: 6.87)

###

- target_system: AMPK 221 (Homo sapiens, UniProt O43741+P54646)
- Construct: open reading frames encoding the full-length α2, β2 and δ1 subunits of human AMPK
- assay_overview: Biochemical profiling of AMPK activators by AMPK221 (HTRF/TR-FRET assay, SAMS peptide, PP2A dephosphorylation protection)
- experimental_conditions: phosphorylated AMPK 221 (α2β2δ1); 11 point dilution, duplicate; 4-parameter fit
- Description: The biochemical EC50 (half-maximal concentration required for full activation) of compounds for the activation of AMPK was evaluated by HTRF assay using LANCE Ultra ULight-Acetyl-CoA Carboxylase (SAMS) peptide (commercially available, Perkin Elmer catalog TRF0133-M). […]
assay_readout: EC50 (nM)

Known results for compounds:
COC(=O)c1ccc(-c2ccc(-c3cc4c(CCC(=O)O)n[nH]c4cc3Cl)cc2)c(O)c1 | 190
COc1c(F)ccc(-c2ccc(-c3cc4c(CCC(=O)O)n[nH]c4cc3Cl)cc2)c1O | 81
Cc1ccc(F)c(O)c1-c1ccc(-c2cc3c(CCC(=O)O)n[nH]c3cc2Cl)cc1 | 97

P: NC(c1ccc(-c2ccc(-c3cc4c(CCC(=O)O)n[nH]c4cc3Cl)cc2)c(O)c1)C(F)(F)F (centres unmarked)
Q: COc1ccc(F)c(-c2ccc(-c3cc4c(CCC(=O)O)n[nH]c4cc3Cl)cc2)c1O
R: CC(C)Oc1cccc(-c2ccc(-c3cc4c(CCC(=O)O)n[nH]c4cc3Cl)cc2)c1O
S: O=C(O)CCc1n[nH]c2cc(Cl)c(-c3ccc(-c4c(O)cccc4F)cc3)cc12
T: O=C(O)CCc1n[nH]c2cc(Cl)c(-c3ccc(-c4ccc5c(c4O)OCC5)cc3)cc12
# ascending order, key=EC50 Lab note: record answer as labels in requested order.
T, P, Q, R, S
(T: 19 nM, P: 69 nM, Q: 114 nM, R: 205 nM, S: 337 nM)

###

- target_system: AMPK 221 (Homo sapiens, UniProt O43741+P54646)
- Construct: open reading frames encoding the full-length α2, β2 and δ1 subunits of human AMPK
- assay_overview: Biochemical profiling of AMPK activators by AMPK221 (HTRF/TR-FRET assay, SAMS peptide, PP2A dephosphorylation protection)
- experimental_conditions: phosphorylated AMPK 221 (α2β2δ1); 11 point dilution, duplicate; 4-parameter fit
assay_readout: EC50 (nM)

Some compounds with recorded EC50:
N#Cc1cc2[nH]nc(CCC(=O)O)c2cc1-c1ccc(-c2ccccc2O)cc1 | 198
O=C(O)CCc1n[nH]c2cc(Cl)c(-c3ccc(-c4ccc(C(=O)NCCCO)cc4)cc3)cc12 | 82
COc1ccc(-c2ccc(-c3cc4c(CCC(=O)O)n[nH]c4cc3Cl)cc2)c(O)c1OC | 19
O=C(O)CCc1n[nH]c2cc(Cl)c(-c3ccc(-c4ccc(OCCN5CCOCC5)cc4)cc3)cc12 | 209
O=C(O)CCc1n[nH]c2cc(Cl)c(-c3ccc(-c4ccc5c(c4)CS(=O)(=O)C5)cc3)cc12 | 1010

P: Cc1cccc(O)c1-c1ccc(-c2cc3c(CCC(=O)O)n[nH]c3cc2Cl)cc1
Q: Cc1ccccc1-c1ccc(-c2cc3c(CCC(=O)O)n[nH]c3cc2Cl)cc1
Given the listed items, does P or Q have the lesser reported EC50? Lab note: record the label of whichever item you select.
P

###

- target_system: AMPK 111 (Homo sapiens, UniProt Q13131+Q9Y478)
- Construct: open reading frames encoding the full-length α1, β1 and δ1 subunits of human AMPK
- Sequence (Q13131 whole entry, one chain of several): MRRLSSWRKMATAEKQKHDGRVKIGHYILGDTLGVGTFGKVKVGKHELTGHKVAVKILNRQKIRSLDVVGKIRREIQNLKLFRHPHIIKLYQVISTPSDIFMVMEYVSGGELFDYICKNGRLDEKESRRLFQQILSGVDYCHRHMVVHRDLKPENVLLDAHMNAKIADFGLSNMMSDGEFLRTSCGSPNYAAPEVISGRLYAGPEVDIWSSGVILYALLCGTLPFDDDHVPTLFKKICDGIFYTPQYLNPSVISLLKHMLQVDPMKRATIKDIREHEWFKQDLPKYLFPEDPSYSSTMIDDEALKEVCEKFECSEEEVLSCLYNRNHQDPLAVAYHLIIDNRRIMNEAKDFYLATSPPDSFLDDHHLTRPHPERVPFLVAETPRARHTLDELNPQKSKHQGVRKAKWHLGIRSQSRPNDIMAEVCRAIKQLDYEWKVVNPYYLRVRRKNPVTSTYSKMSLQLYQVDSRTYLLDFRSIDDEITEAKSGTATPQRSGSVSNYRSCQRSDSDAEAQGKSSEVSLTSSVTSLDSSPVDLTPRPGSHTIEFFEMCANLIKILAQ
- Sequence (Q9Y478 whole entry, one chain of several): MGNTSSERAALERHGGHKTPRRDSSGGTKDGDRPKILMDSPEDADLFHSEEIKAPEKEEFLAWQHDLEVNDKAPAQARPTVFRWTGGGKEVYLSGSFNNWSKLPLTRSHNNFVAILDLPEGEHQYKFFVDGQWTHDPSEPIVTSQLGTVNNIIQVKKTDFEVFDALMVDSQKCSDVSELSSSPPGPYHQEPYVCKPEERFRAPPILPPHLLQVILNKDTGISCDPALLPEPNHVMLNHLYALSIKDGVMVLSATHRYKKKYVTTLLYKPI
- assay_overview: Biochemical profiling of AMPK activators by AMPK111 (HTRF/TR-FRET assay, SAMS peptide, PP2A dephosphorylation protection)
- experimental_conditions: phosphorylated AMPK 111 (α1β1δ1 as printed); 11 point dilution, duplicate; 4-parameter fit
assay_readout: EC50 (nM)

Record excerpt, results attached:
O=C(O)CCc1n[nH]c2cc(F)c(-c3ccc(-c4ccccc4O)cc3)cc12 | 301
O=C(O)CCCc1n[nH]c2cc(Cl)c(-c3ccc(-c4ccccc4O)cc3)cc12 | 51
CC(C)Oc1cccc(-c2ccc(-c3cc4c(CCC(=O)O)n[nH]c4cc3Cl)cc2)c1O | 464
Cc1cscc1-c1ccc(-c2cc3c(CCC(=O)O)n[nH]c3cc2Cl)cc1 | 241
Cc1ccc(F)c(O)c1-c1ccc(-c2cc3c(CCC(=O)O)n[nH]c3cc2Cl)cc1 | 16

1: O=C(O)CCc1n[nH]c2cc(Cl)c(-c3ccc(-c4ccc5c(c4)CS(=O)(=O)C5)cc3)cc12
2: Cc1cc(C)c(-c2ccc(-c3cc4c(CCC(=O)O)n[nH]c4cc3Cl)cc2)c(O)c1
3: CS(=O)(=O)c1ccc(-c2ccc(-c3cc4c(CCC(=O)O)n[nH]c4cc3Cl)cc2)cc1
List items by EC50 in falling order. List the labels according to the requested ordering.
1, 3, 2

###

- target_system: AMPK 221 (Homo sapiens, UniProt O43741+P54646)
- Construct: open reading frames encoding the full-length α2, β2 and δ1 subunits of human AMPK
- assay_overview: Biochemical profiling of AMPK activators by AMPK221 (HTRF/TR-FRET assay, SAMS peptide, PP2A dephosphorylation protection)
- experimental_conditions: phosphorylated AMPK 221 (α2β2δ1); 11 point dilution, duplicate; 4-parameter fit
pEC50: −log10 of the molar value.
assay_readout: pEC50

CC(=O)N(C)c1ccc(-c2ccc(-c3cc4c(CCC(=O)O)n[nH]c4cc3Cl)cc2)cc1 [Example 39] | 6.66

a: COc1ccc(-c2ccc(-c3cc4c(CCC(=O)O)n[nH]c4cc3Cl)cc2)c(O)c1 [Example 21]
b: CC(=O)NCc1ccc(-c2ccc(-c3cc4c(CCC(=O)O)n[nH]c4cc3Cl)cc2)cc1 [Example 41]
c: NC(=O)c1ccc(-c2ccc(-c3cc4c(CCC(=O)O)n[nH]c4cc3Cl)cc2)c(O)c1 [Example 6]
Let's sort these by pEC50, smallest first. Go ahead? # output: labels, in the requested order
b, a, c

A: O=C(O)CCc1n[nH]c2cc(F)c(-c3ccc(-c4ccccc4O)cc3)cc12 [Example 33]
B: O=C(O)CCc1n[nH]c2cc(Cl)c(-c3ccc(-c4cc(F)ccc4O)cc3)cc12 [Example 70]
When the recorded pEC50 values are compared, which is smaller: that of A or that of B ? Choose, then provide that item's label.
B

I: O=C(O)CCc1n[nH]c2cc(Cl)c(-c3ccc(-c4ccccc4O)cc3)cc12 [Example 1]
II: O=C(O)CCc1n[nH]c2cc(Cl)c(-c3ccc(-c4csc(CO)n4)cc3)cc12 [Example 66]
III: O=C(O)CCc1n[nH]c2cc(Cl)c(-c3ccc(-c4ccc(F)cc4O)cc3)cc12 [Example 47]
Sort entries by pEC50 from minimum to maximum value. Form entry: ranked labels (order as requested).
II, III, I
(II: 5.96, III: 6.55, I: 7.06)

P: O=C(O)CCc1n[nH]c2cc(Cl)c(-c3ccc(-c4cccc(CO)c4)cc3)cc12 [Example 61]
Q: O=C(O)CCc1n[nH]c2cc(Cl)c(-c3ccc(-c4ccc(OC(F)F)cc4O)cc3)cc12 [Example 69]
Between the entries labelled P and Q , which has a larger pEC50 value on record? Pick one and reply with its label.
P

Taken from patent US20240336572A1.
